test: activity coefficient (dimensionless); of the first substance listed, at infinite dilution; xn = mol fraction of the nth substance listed; conditions: 368.15 K; 101 kPa; Liquid; Chromatography; x1 = 0
Param label: returns Satisfied when activity coefficient < 10, returns Not satisfied otherwise, including exact equality.

The following compounds have reported results that may help.
CCC(C)(C)OC [2-methoxy-2-methylbutane] + CCCCCC[n+]1ccc2ccccc2c1.N#C[S-]	Satisfied
CCC(=O)CC [pentan-3-one] + CCCCCC[n+]1ccc2ccccc2c1.N#C[S-]	Satisfied
Cc1ccc(C)cc1 [1,4-dimethylbenzene] + CCCCCC[n+]1ccc2ccccc2c1.N#C[S-]	Satisfied
CCCCCCCCCC [decane] + CCCCCC[n+]1ccc2ccccc2c1.N#C[S-]	Not satisfied

Task: activity coefficient strictly < 10 for this compound? CC(C)=O [acetone] + CCCCCC[n+]1ccc2ccccc2c1.N#C[S-]
Output: Satisfied

Task: activity coefficient strictly < 10 for this compound? c1ccsc1 [thiophene] + CCCCCC[n+]1ccc2ccccc2c1.N#C[S-]
Output: Satisfied

Task: activity coefficient strictly < 10 for this compound? C1=CCCCC1 [cyclohexene] + CCCCCC[n+]1ccc2ccccc2c1.N#C[S-]
Output: Satisfied

Task: activity coefficient strictly < 10 for this compound? C1COCCO1 [1,4-dioxane] + CCCCCC[n+]1ccc2ccccc2c1.N#C[S-]
Output: Satisfied

Task: activity coefficient strictly < 10 for this compound? CCCO [propan-1-ol] + CCCCCC[n+]1ccc2ccccc2c1.N#C[S-]
Output: Satisfied

Task: activity coefficient strictly < 10 for this compound? CCC[N+](=O)[O-] [1-nitropropane] + CCCCCC[n+]1ccc2ccccc2c1.N#C[S-]
Output: Satisfied

Task: activity coefficient strictly < 10 for this compound? CC#N [acetonitrile] + CCCCCC[n+]1ccc2ccccc2c1.N#C[S-]
Output: Satisfied

Task: activity coefficient strictly < 10 for this compound? CCCCCC [hexane] + CCCCCC[n+]1ccc2ccccc2c1.N#C[S-]
Output: Not satisfied

Task: activity coefficient strictly < 10 for this compound? CCCCCCCC [octane] + CCCCCC[n+]1ccc2ccccc2c1.N#C[S-]
Output: Not satisfied

Task: activity coefficient strictly < 10 for this compound? CCC(C)(C)C [2,2-dimethylbutane] + CCCCCC[n+]1ccc2ccccc2c1.N#C[S-]
Output: Not satisfied

Task: activity coefficient strictly < 10 for this compound? CCCCCCC [heptane] + CCCCCC[n+]1ccc2ccccc2c1.N#C[S-]
Output: Not satisfied

Task: activity coefficient strictly < 10 for this compound? CCOCC [diethyl ether] + CCCCCC[n+]1ccc2ccccc2c1.N#C[S-]
Output: Satisfied

Task: activity coefficient strictly < 10 for this compound? CCOC(C)(C)C [2-ethoxy-2-methylpropane] + CCCCCC[n+]1ccc2ccccc2c1.N#C[S-]
Output: Not satisfied

Task: activity coefficient strictly < 10 for this compound? C#CCCCCCC [1-octyne] + CCCCCC[n+]1ccc2ccccc2c1.N#C[S-]
Output: Satisfied

Task: activity coefficient strictly < 10 for this compound? CCc1ccccc1 [ethylbenzene] + CCCCCC[n+]1ccc2ccccc2c1.N#C[S-]
Output: Satisfied

Task: activity coefficient strictly < 10 for this compound? C1CCCC1 [cyclopentane] + CCCCCC[n+]1ccc2ccccc2c1.N#C[S-]
Output: Satisfied

Task: activity coefficient strictly < 10 for this compound? c1ccccc1 [benzene] + CCCCCC[n+]1ccc2ccccc2c1.N#C[S-]
Output: Satisfied

Task: activity coefficient strictly < 10 for this compound? CCCOCCC [dipropyl ether] + CCCCCC[n+]1ccc2ccccc2c1.N#C[S-]
Output: Not satisfied

Task: activity coefficient strictly < 10 for this compound? C#CCCC [1-pentyne] + CCCCCC[n+]1ccc2ccccc2c1.N#C[S-]
Output: Satisfied

Task: activity coefficient strictly < 10 for this compound? C=CCCCCCCCC [1-decene] + CCCCCC[n+]1ccc2ccccc2c1.N#C[S-]
Output: Not satisfied

Task: activity coefficient strictly < 10 for this compound? CCCC(=O)CC [3-hexanone] + CCCCCC[n+]1ccc2ccccc2c1.N#C[S-]
Output: Satisfied

Task: activity coefficient strictly < 10 for this compound? CC(C)OC(C)C [diisopropyl ether] + CCCCCC[n+]1ccc2ccccc2c1.N#C[S-]
Output: Not satisfied

Source listed as the NIST ThermoML archive (doi:10.1016/j.jct.2013.02.004).
